Target: B-Raf(V600E) kinase (SEQ ID NO:11) (Homo sapiens, UniProt P15056, V600E)
Sequence (P15056 with tags, fused parts or gaps V600E): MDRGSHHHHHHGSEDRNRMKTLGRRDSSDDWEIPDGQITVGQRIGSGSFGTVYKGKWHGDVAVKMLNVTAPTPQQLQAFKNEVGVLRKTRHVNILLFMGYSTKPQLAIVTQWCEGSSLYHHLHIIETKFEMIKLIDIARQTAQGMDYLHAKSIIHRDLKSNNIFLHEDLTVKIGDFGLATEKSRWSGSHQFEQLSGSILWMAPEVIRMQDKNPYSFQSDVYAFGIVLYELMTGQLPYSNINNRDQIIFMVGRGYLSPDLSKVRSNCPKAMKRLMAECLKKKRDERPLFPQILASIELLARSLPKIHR
Experiment: B-Raf(V600E) kinase assay (pyruvate kinase/lactate dehydrogenase coupled, MEK1 substrate)
Details: 1 h preincubation at 30° C., ATP 0.2 mM; read-out: B-Raf V600E Enzyme Assay, biochemical IC50
Structures can show the parent of a compound that is named as a salt.
Listing of recorded IC50 by entry.

These recorded examples may help you get a feel for the data.
- COMPOUND: "Cn1cc(-c2cc(Oc3ccc(NC(=O)Nc4cc(C(C)(C)C)nn4-c4cccc(CO)c4)c(F)c3)ccn2)cn1 [Example 7]"
  IC50: "< 100 nM"
- COMPOUND: "Cn1cc(-c2cc(Oc3ccc(NC(=O)Nc4cc(C(C)(C)C)nn4-c4ccc(C#N)cc4)c(F)c3)ccn2)cn1 [Example 6]"
  IC50: "< 100 nM"

Incoming: Give the reported IC50 for this compound. CCn1cc(NC(=O)Nc2ccc(Oc3ccnc(-c4cnn(C)c4)c3)cc2F)c(-c2ccccc2)n1 [Example 23, hydrochloride]
Outgoing: < 10000 nM

Incoming: Give the reported IC50 for this compound. Cn1cc(-c2cc(Oc3ccc(NC(=O)Nc4cc(C(C)(C)C)nn4-c4ccc(CO)cc4)c(F)c3)ccn2)cn1 [Example 8]
Outgoing: < 100 nM

Incoming: Give the reported IC50 for this compound. CC(C)c1cc(NC(=O)Nc2ccc(Oc3ccnc(-c4cnn(C)c4)c3)cc2F)n(-c2cccc(F)c2)n1 [Example 24]
Outgoing: < 100 nM

Incoming: Give the reported IC50 for this compound. CC(C)c1cc(NC(=O)Nc2ccc(Oc3ccnc(-c4cnn(C)c4)c3)cc2F)n(-c2ccc(F)c(C#N)c2)n1 [Example 5]
Outgoing: < 100 nM

Incoming: Give the reported IC50 for this compound. CCc1cc(NC(=O)Nc2ccc(Oc3ccnc(-c4cnn(C(C)C)c4)c3)cc2F)n(-c2cccc(C#N)c2)n1 [Example 17]
Outgoing: < 10000 nM
